- experimental_system: T1, ErbB3-mFc (human)
- T1 construct: Dimeric soluble ErbB3; also called hErbB3.mFc
- T1 chain: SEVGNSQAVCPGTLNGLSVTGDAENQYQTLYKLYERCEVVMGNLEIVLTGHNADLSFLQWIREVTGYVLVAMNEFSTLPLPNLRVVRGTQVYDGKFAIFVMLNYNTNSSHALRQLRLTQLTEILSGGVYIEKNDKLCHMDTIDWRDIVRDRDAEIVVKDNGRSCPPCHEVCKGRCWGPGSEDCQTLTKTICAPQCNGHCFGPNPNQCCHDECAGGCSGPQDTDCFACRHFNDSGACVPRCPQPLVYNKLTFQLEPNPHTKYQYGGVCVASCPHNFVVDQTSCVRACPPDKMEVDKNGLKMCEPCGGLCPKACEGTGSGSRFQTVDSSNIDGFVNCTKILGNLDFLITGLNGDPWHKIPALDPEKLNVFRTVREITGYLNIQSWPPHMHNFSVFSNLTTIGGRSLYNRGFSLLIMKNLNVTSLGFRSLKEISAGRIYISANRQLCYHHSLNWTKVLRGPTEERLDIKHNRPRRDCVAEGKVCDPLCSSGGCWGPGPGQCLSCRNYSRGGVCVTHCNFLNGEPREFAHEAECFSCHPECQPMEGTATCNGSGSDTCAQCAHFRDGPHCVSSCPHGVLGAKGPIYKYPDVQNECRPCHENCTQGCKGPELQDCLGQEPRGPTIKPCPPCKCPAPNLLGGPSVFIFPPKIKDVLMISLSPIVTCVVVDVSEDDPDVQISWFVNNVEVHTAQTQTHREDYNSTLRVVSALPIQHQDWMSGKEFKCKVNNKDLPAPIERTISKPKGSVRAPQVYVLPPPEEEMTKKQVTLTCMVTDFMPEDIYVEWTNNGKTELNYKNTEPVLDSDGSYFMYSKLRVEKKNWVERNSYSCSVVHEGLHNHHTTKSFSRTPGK
- test_description: blocking ELISA: antibody (0-50 nM) + 50 pM ErbB3-mFc, binding to coated neuregulin1b
Assign labels as follows, please: 1 (yes) for IC50 below 100 pM; 0 (no) for IC50 equal to or exceeding 100 pM.

Record excerpt, results attached:
H4H2147P (antibody, human IgG4, V domains shown, Human IgG4 Fc (prefix H4H)) VH: QVQLVESGGGLVKPGGSLRLSCAASGFTFSDFNMGWIRQAPGKGLEWVSHISGSGNVIYYADSVKGRFAISRDNGKNSLYLQVNSLRAEDTAVYYCARDIGDSDAFDIWGQGTMVTVSS VL: DIQLTQSPSFLSASVGDRVTITCWASQDISSYLAWYQQKPGKAPKLLIYGASTLESGVPSRFSGSGSGTEFTLTISSLQPEDVATYYCQQLNTYPLTFGGGTKVEIKR | 1 (yes)
H4H2132P (antibody, human IgG4, V domains shown, Human IgG4 Fc (prefix H4H)) VH: EVQLVESGGGVVRPGGSLRLSCAASGFTFDDYGMSWVRQFPGKGLEWVSSIDGNGGNTGYSDSVKGRFTISRDNAKNSLHLQMNSLRAEDTALYHCARDPDYDSVWGNYRPFDYWGQGTLVTVSS VL: DIVMTQSPDSLAVSLGERATINCKSSQSVLSSSNDNNYLAWFQQKPGQPPNLLIYWASTRDSGVPDRFSASGSGTDFTLAISSLQAEDVAVYYCHQYYSSPPTFGQGTKVEIKR | 1 (yes)
H4H2114P (antibody, human IgG4, V domains shown, Human IgG4 Fc (prefix H4H)) VH: QVQLVESGGGVVQPGRSLRLSCAASGFTFSSYGMHWVRQAPGKGLEWVAGMSYDGSSKYYEDSVKGRFTISRDNSKNTLNLQMNSLRVEDTAVYYCAKERDYVEYVDSYYGMDVWGQGTTVTVSA VL: AIQMTQSPSSLSASVGDRVTITCRASQGIRNDLGWYQQKPGKAPKVLIYAASSLQSGVPSRFSGSGSGTVFTLTISSLQPEDFATYYCLQDYNYPLTFGGGTKVEIKR | 0 (no)
H4H2092P (antibody, human IgG4, V domains shown, Human IgG4 Fc (prefix H4H)) VH: EVQLVESGGGVVRPGGSLRLSCAASGFTFEDYGMNWVRQVPGKGLEWVSGTNWNGGITGYTGSVKGRFTISRDNAKNSLYLQMNSLRAEDTALYHCARDSGDQDAFDIWGQGTMVTVSS VL: DIQLTQSPSFLSASVGDRVTITCWASQDISSYLAWYQQKPGKAPKLLIYAASTFQSGVPSRFSGSGSGTEFTLTISNLQPEDFATYYCQQLDSYPLSFGGGTKVEIKR | 1 (yes)

Strictly below 100 pM in IC50? H4H2098P (antibody, human IgG4, V domains shown, Human IgG4 Fc (prefix H4H)) VH: QVQLVESGGGVVQPGRSLRLSCAASGFTFSSFGMHWVRQAPGKGLEWVAVIWYVEINKYHADSVKGRFTISRDDSKNTVYLQMNSLRAEDTAVYYCARDWNDGDYGMDVWGQGTTVTVSS VL: DIQLTQSPSFLSASVGDRVTITCWASQGISSFLAWYQQKAGKAPRLLIYAASTLQTGVPSRFSGSGSGTEFTLTISSLQPGDFATYHCQQLNSYPYTFGQGTKLEIKR
0 (no)
